Target: human ACVR2A (human, UniProt P27037 20-135, limits assumed); further: test concentration or dose not given here
Sequence (P27037 20-135 limits assumed): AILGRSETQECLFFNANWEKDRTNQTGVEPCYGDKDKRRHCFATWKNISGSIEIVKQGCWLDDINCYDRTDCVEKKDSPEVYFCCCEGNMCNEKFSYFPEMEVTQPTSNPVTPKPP
Assay: ELISA
Here, each record is paired with measured optical density data.

binder: 375_A06 (antibody, V domains shown, VH/VL only) VH: EVQLLESGGGLVQPGGSLRLSCAASGFTFSSYSMNWVRQAPGKGLEWVAGINYNSGYKGYADSVKGRFTISRDNSKNTLYLQMNSLRAEDTAVYYCARSATWHDTHLDYWGQGTLVTVSS VL: DIQMTQSPSSLSASVGDRVTITCRASQSILTYVNWYQQKPGKAPKLLIYAASSLQSGVPSRFSGSGSGTDFTLTISSLQPEDFATYYCQQSYSTPLTFGGGTKVEIK
readout.unit: OD
optical density: 3.65
--
binder: 365_A07 (antibody, V domains shown, VH/VL only) VH: EVQLLESGGGLVQPGGSLRLSCAASGFTFSSYGMNWVRQAPGKGLEWVAGINYNSGYKGYADSVKGRFTISRDNSKNTLYLQMNSLRAEDTAVYYCARSATWHDTHLDYWGQGTLVTVSS VL: DIQMTQSPSSLSASVGDRVTITCRASQSIVSYLNWYQQKPGKAPKLLIYAATSRASGVPSRFSGSGSGTDFTLTISSLQPEDFATYYCQQSYNLPLTFGGGTKVEIK
readout.unit: OD
optical density: 2.24
--
binder: 376_C01 (antibody, V domains shown, VH/VL only) VH: EVQLLESGGGLVQPGGSLRLSCAASGFTFDSYSMNWVRQAPGKGLEWVAGINYNGGYTSYADSVKGRFTISRDNSKNTLYLQMNSLRAEDTAVYYCARSANWHDTALDYWGQGTLVTVSS VL: DIQMTQSPSSLSASVGDRVTITCRASQSILTYLNWYQQKPGKAPKLLIYAATSLASGVPSRFSGSGSGTDFTLTISSLQPEDFATYYCQQSYDNPLTFGGGTKVEIK
readout.unit: OD
optical density: 3.26
--
binder: 367_F05 (antibody, V domains shown, VH/VL only) VH: EVQLLESGGGLVQPGGSLRLSCAASGFTFSSYGMNWVRQAPGKGLEWVASINYNGGYTGYADSVKGRFTISRDNSKNTLYLQMNSLRAEDTAVYYCARSATWHDTALDYWGQGTLVTVSS VL: DIQMTQSPSSLSASVGDRVTITCRASQSILSYVNWYQQKPGKAPKLLIYAATSRASGVPSRFSGSGSGTDFTLTISSLQPEDFATYYCQQSYSSPLTFGGGTKVEIK
readout.unit: OD
optical density: 2.27
--
binder: 376_C12 (antibody, V domains shown, VH/VL only) VH: EVQLLESGGGLVQPGGSLRLSCAASGFTFSSYSMNWVRQAPGKGLEWVAGINYNGGYTGYADSVKGRFTISRDNSKNTLYLQMNSLRAEDTAVYYCARSANWHDTALDYWGQGTLVTVSS VL: DIQMTQSPSSLSASVGDRVTITCRASQSILTYVNWYQQKPGKAPKLLIYAATSRASGVPSRFSGSGSGTDFTLTISSLQPEDFATYYCQQSYDSPLTFGGGTKVEIK
readout.unit: OD
optical density: 3.7

These data points were gathered from patent US20210380703A1.
